test: Viability qHTS for spleen associated tyrosine kinase inhibitor (SYKi) naive MV4-11 cells (AID 1963823); conditions: MV4-11 AML viability, CellTiter-Glo luminescence, 72 h; series mostly up to 45 µM; note: nearly all actives have a fitted effect of over 40% in size
Inconclusive results are not listed. Calls of active or inactive are those of the source. Calls come from the whole dose curve; as a rule, active = well fitted cell-killing curve with a large enough effect; inconclusive = small, poorly fitted or top-dose-only effect, or effect the other way; inactive = no such curve, though single readings can be large or run the other way.
The reply should name one outcome from 1 = active, 0 = inactive

Example entries and their recorded answers appear below.
| compound | class-name |
| --- | --- |
| Cc1cc(O[C@@H]2O[C@H](COC(=O)CC(=O)O)[C@@H](O)[C@H](O)[C@H]2O)c(C(C)C)cc1O | 0 |
| CC1=CC2/C=C(\C)CCC(O)C(=O)C(O)CC(=O)C23C(=O)NC(CC(C)C)C3C1C (configuration not stated) | 1 |
| CC(C)(C)C1CCC(CC2=C(O)c3ccccc3C(=O)C2=O)CC1 (configuration not stated) | 0 |
| Cc1ccc2nc(NCCN)c3ncc(C)n3c2c1 | 1 |
| CC(C)=CCC[C@](C)(O[C@@H]1O[C@H](CO[C@@H]2O[C@H](CO)[C@@H](O)[C@H](O)[C@H]2O)[C@@H](O)[C@H](O)[C@H]1O)[C@H]1CC[C@]2(C)[C@@H]1[C@H](O)C[C@@H]1[C@@]3(C)CC[C@H](O[C@@H]4O[C@H](CO)[C@@H](O)[C@H](O)[C@H]4O[C@@H]4O[C@H](CO)[C@@H](O)[C@H](O)[C@H]4O)C(C)(C)[C@@H]3CC[C@]12C | 0 |
| Cc1cc(C)c(Nc2ccnc(Nc3ccc(C#N)cc3)n2)c(C)c1 | 1 |

Moving on to another compound below.
Q. // outcome(item) with item = `OC[C@H]1O[C@@H]2O[C@H]3[C@H](O)[C@@H](O)[C@@H](O[C@H]4[C@H](O)[C@@H](O)[C@@H](O[C@H]5[C@H](O)[C@@H](O)[C@@H](O[C@H]6[C@H](O)[C@@H](O)[C@@H](O[C@H]7[C@H](O)[C@@H](O)[C@@H](O[C@H]8[C@H](O)[C@@H](O)[C@@H](O[C@H]1[C@H](O)[C@H]2O)O[C@@H]8CO)O[C@@H]7CO)O[C@@H]6CO)O[C@@H]5CO)O[C@@H]4CO)O[C@@H]3CO`
A. 0

====

assay: Viability qHTS for spleen associated tyrosine kinase inhibitor (SYKi) drug resistant MV4-11 cells (AID 1963824); conditions: SYKi-resistant MV4-11 viability, CellTiter-Glo, 72 h; series mostly up to 45 µM; note: nearly all actives have a fitted effect of over 35% in size
Inconclusive results are not listed. The source made the active and inactive calls. The call rests on the fitted dose curve; in most records, active means well fitted cell-killing curve with a large enough effect; inconclusive means small, poorly fitted or top-dose-only effect, or effect the other way; inactive means no such curve, though single readings can be large or run the other way.
The reply should name one outcome from active, inactive

Example entries and their recorded answers appear below.
| molecule | class-name |
| --- | --- |
| COc1ccc(S(=O)(=O)N[C@@H](CNc2nc(C)nc(N3CCC(c4ccc5c(n4)NCCC5)CC3)c2C)C(=O)O)cc1 | inactive |
| O=C(O)c1cn(-c2ccc(F)cc2)c2cc(N3CCNCC3)c(F)cc2c1=O | inactive |
| CCCCC(=O)N1c2ccccc2NC2=C(C(=O)CCC2)C1c1ccccc1Cl (configuration not stated) | active |
| CC[C@]1(O)C[C@H]2CN(CCC3C(=Nc4ccccc43)[C@@](C(=O)OC)(c3cc4c(cc3OC)N(C)[C@H]3[C@@](O)(C(N)=O)[C@H](O)[C@]5(CC)C=CCN6CC[C@]43[C@@H]65)C2)C1 (some centres not stated) | active |

Q. // outcome(item) with item = O=C(/C=C/c1ccc(O)c(O)c1)O[C@@H]1[C@@H](O)[C@H](OC2CCCCC2O)O[C@H](CO)[C@H]1O (some centres not stated)
A. inactive

Q. // outcome(item) with item = CC(C)NCC(O)c1ccc(O)c(O)c1 (configuration not stated)
A. inactive

Q. // outcome(item) with item = O=C(NCC(O)CO)c1c(I)c(C(=O)NCC(O)CO)c(I)c(N(CCO)C(=O)CO)c1I (configuration not stated)
A. inactive

Data credit: PubChem BioAssay (NCATS)
